System: up to 32 different microorganisms
Protocol Description: in vitro antibacterial activity (MIC), agar dilution on Brain Heart Infusion (BHI) agar with Steers replicator
Format: cell-based
Recorded Conditions: Nocardia Asteroides ATCC9970 (code VV); unit assumed
Parameter: MIC (µg/mL)

Given Smiles	Unit Of Measurement	Reported Measurement
CC[C@H]1OC(=O)[C@H](C)C(=O)[C@H](C)[C@@H](O[C@@H]2O[C@H](C)C[C@H](N(C)C)[C@H]2O)[C@@](C)(OCCCc2cnc3ccccc3c2)C[C@@H](C)C2=NCCN3C(=O)O[C@@]1(C)[C@H]3[C@H]2C	µg/mL	0.05
CCCO[C@@]1(C)C[C@@H](C)C(=O)[C@H](C)[C@@H](O)[C@](C)(O)[C@@H](CC)OC(=O)[C@H](C)C(=O)[C@H](C)[C@H]1O[C@@H]1O[C@H](C)C[C@H](N(C)C)[C@H]1O	µg/mL	12.5
